B1: minF1; a variant is named by its letters at N, in order (parent)
chain: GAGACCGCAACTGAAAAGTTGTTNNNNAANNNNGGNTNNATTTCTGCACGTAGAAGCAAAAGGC

# Variants of: B1
# assayExplanation: fraction ligated after 30 min (ligated reads / total reads); higher = more ligase activity
# conditionInfo: with F1*subA RNA substrate (template-directed ligation), 42 °C
Assign class 1 whenever fraction ligated does not fall below 0.002; assign class 0 whenever it does.

Examples from the recorded data:
mutationKey	answerLabel
TCAGATAGTGA	class 1
CAGAGGTGTGA	class 1
ATCAAGGATGA	class 0
TCAGGATGTGA T23A A28T A29G	class 1
ATCGAGGTGTA	class 1
TCAGTGGAGTA G34T	class 1

Decide: is the reported value of fraction ligated for TCAGATGGGTA T23A G34A equal to or greater than 0.002?
class 0

Form field: fraction ligated at least 0.002? Entry: ATCGTGATTGA
class 1

Exam item: decide whether the reported fraction ligated for ATCAATGGGTT G34A T37G is at least 0.002.
class 0

Hi team, for TAGATGATTGA , is the recorded fraction ligated at or above 0.002?
class 0

Determine whether this variant has fraction ligated no lower than 0.002: ACAGATGGGGT G34A G35T T37G A40T
class 0

# bool: fraction ligated of TCAATGATTGA T23A >= 0.002
class 1
